Examples of compounds with documented IC50 follow.
SYSTEM: Human immunodeficiency virus type 1 reverse transcriptase (Human immunodeficiency virus 1, UniProt Q72547)

# count of solved cases: 3
Cc1cc(C#N)cc(C)c1Oc1nc(NC2CCN(Cc3ccc(S(N)(=O)=O)cc3)CC2)c(C#N)cc1F | 292 nM
Cc1cc(C#N)cc(C)c1Oc1nc(Nc2ccc(C#N)c(C#N)c2)c(C#N)cc1Cl | 144 nM
Cc1cc(C#N)cc(C)c1Oc1ccc(C#N)c(Nc2ccc(C#N)cc2)n1 | 94 nM

query: Given the entry Cc1cc(C#N)cc(C)c1Oc1nc(NC2CCN(Cc3ccc(S(C)(=O)=O)cc3)CC2)c(C#N)cc1F , report its measured IC50.
result: 341 nM

query: Given the entry Cc1cc(C#N)cc(C)c1Oc1ccc(C#N)c(NC2CCN(Cc3ccc(S(N)(=O)=O)cc3)CC2)n1 , report its measured IC50.
result: 205 nM

query: Given the entry Cc1cc(C#N)cc(C)c1Oc1nc(NC2CCN(Cc3ccc(C(N)=O)cc3)CC2)c(C#N)cc1Cl , report its measured IC50.
result: 402 nM

query: Given the entry Cc1cc(C#N)cc(C)c1Oc1ccc(C#N)c(Nc2ccc(C#N)c(F)c2)n1 , report its measured IC50.
result: 12000 nM

query: Given the entry Cc1cc(C#N)cc(C)c1Oc1nc(NC2CCN(Cc3ccc(S(C)(=O)=O)cc3)CC2)c(C#N)cc1Cl , report its measured IC50.
result: 449 nM

query: Given the entry Cc1cc(C#N)cc(C)c1Oc1nc(Nc2ccc(C#N)c(F)c2)c(C#N)cc1Cl , report its measured IC50.
result: 98 nM

query: Given the entry Cc1cc(C#N)cc(C)c1Oc1ccc(C#N)c(NC2CCN(Cc3ccc(S(C)(=O)=O)cc3)CC2)n1 , report its measured IC50.
result: 429 nM

query: Given the entry Cc1cc(C#N)cc(C)c1Oc1nc(Nc2ccc(CN3CCN(S(C)(=O)=O)CC3)cc2)c(C#N)cc1F , report its measured IC50.
result: 294 nM

query: Given the entry Cc1cc(C#N)cc(C)c1Oc1nc(Nc2ccc(C#N)c(C#N)c2)c(C#N)cc1F , report its measured IC50.
result: 230 nM

query: Given the entry Cc1cc(C#N)cc(C)c1Oc1nc(Nc2ccc(CN3CCN(S(=O)(=O)N(C)C)CC3)cc2)c(C#N)cc1Cl , report its measured IC50.
result: 686 nM

query: Given the entry Cc1cc(C#N)cc(C)c1Oc1ccc(C#N)c(NC2CCN(Cc3ccc(C(N)=O)cc3)CC2)n1 , report its measured IC50.
result: 256 nM
